Biological target: human TGF-βRII on cells (SBE-bla HEK 293T cells; A549 cells) (human, UniProt P37173 23-567)
Sequence (P37173 23-567): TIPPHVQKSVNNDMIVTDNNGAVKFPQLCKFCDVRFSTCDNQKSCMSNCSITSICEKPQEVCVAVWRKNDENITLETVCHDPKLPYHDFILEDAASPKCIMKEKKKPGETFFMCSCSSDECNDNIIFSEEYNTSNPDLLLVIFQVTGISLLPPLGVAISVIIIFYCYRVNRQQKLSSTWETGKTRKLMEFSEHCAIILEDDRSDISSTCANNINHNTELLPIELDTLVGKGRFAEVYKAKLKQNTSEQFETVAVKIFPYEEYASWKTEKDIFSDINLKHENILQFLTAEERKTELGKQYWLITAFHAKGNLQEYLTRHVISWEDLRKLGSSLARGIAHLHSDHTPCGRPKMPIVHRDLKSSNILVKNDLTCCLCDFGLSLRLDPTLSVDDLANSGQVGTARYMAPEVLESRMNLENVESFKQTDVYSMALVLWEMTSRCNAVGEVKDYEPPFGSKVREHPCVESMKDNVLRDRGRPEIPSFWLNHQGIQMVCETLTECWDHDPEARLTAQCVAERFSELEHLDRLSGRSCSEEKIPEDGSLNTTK
Test: cell-based or functional assay
Measurement Type: IC50 nM, Mean (SBE-bla HEK 293T cell sensor assay) (nM)

Binder	Reported Measurement
DOM23h-271-132 (DOM23h-271-123 + C-terminal Alanine + 64R) (VHH, human VH dAb) VHH: EVQLLESGGGLVQPGGSLRLSCAASGSTFTEYRMWWVRQAPGKGLEWVSAIEPIGHRTYYADSVRGRFTISRDNSKNTLYLQMNSLRAEDTAVYYCAKQAPGEKWARRWDLDYWGQGTLVTVSS	21
DOM23h-439-25 (VHH, expressed from pC10) VHH: EVQLLESGGGLVQPGGSLRLSCAASGFTFGTEQMWWVRQAPGKGLEFVSRIDSPGGRTYYADSVKGRFTISRDNSKNTLYLQMNSLRAEDTAVYYCAKRRPTGVSGTFYDYWGQGTLVTVSS	4
DOM23h-271-129 (VHH, expressed from pC10) VHH: EVQLLESGGGLVQPGGSLRLSCAASGSTFTEYRMWWVRQAPGKGLEWVSAIEPIGHRTYYADSVKGRFTISRDNSKNTLYLQMNSLRAEDTAVYYCAKQAPNQRYVARGRLDYWGQGTLVTVSS	22.7
DOM23h-439-35 (VHH, expressed from pC10) VHH: EVQLLESGGGLVQPGGSLRLSCAASGFTFGTDQMWWVRQAPGKGLEFVSRIDSPGGRTYYANSVKGRFTISRDNSKNTLYLQMNSLRAEDTAVYYCAKRQPAGVSGKYVDYWGQGTLVTVSS	0.5
DOM23h-271-133 (DOM23h-271-123 + C-terminal Alanine + 61N64R) (VHH, human VH dAb) VHH: EVQLLESGGGLVQPGGSLRLSCAASGSTFTEYRMWWVRQAPGKGLEWVSAIEPIGHRTYYANSVRGRFTISRDNSKNTLYLQMNSLRAEDTAVYYCAKQAPGEKWARRWDLDYWGQGTLVTVSS	2.4
DOM23h-439-43 (DOM23h-439-25 + C-terminal Alanine + 64R) (VHH, human VH dAb) VHH: EVQLLESGGGLVQPGGSLRLSCAASGFTFGTEQMWWVRQAPGKGLEFVSRIDSPGGRTYYADSVRGRFTISRDNSKNTLYLQMNSLRAEDTAVYYCAKRRPTGVSGTFYDYWGQGTLVTVSS	1
DOM23h-439-44 (DOM23h-439-25 + C-terminal Alanine + 61N64R) (VHH, human VH dAb) VHH: EVQLLESGGGLVQPGGSLRLSCAASGFTFGTEQMWWVRQAPGKGLEFVSRIDSPGGRTYYANSVRGRFTISRDNSKNTLYLQMNSLRAEDTAVYYCAKRRPTGVSGTFYDYWGQGTLVTVSS	1.3
DOM23h-271-131 (DOM23h-271-123 + C-terminal Alanine + 61N) (VHH, human VH dAb) VHH: EVQLLESGGGLVQPGGSLRLSCAASGSTFTEYRMWWVRQAPGKGLEWVSAIEPIGHRTYYANSVKGRFTISRDNSKNTLYLQMNSLRAEDTAVYYCAKQAPGEKWARRWDLDYWGQGTLVTVSS	6.3
DOM23h-439-40 (DOM23h-439-25 + C-terminal Alanine) (VHH, human VH dAb) VHH: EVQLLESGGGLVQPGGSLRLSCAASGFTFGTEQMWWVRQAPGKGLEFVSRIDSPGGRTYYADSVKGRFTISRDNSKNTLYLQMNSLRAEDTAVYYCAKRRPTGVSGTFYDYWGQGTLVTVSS	14
DOM23h-439-42 (DOM23h-439-25 + C-terminal Alanine + 61N) (VHH, human VH dAb) VHH: EVQLLESGGGLVQPGGSLRLSCAASGFTFGTEQMWWVRQAPGKGLEFVSRIDSPGGRTYYANSVKGRFTISRDNSKNTLYLQMNSLRAEDTAVYYCAKRRPTGVSGTFYDYWGQGTLVTVSS	0.7
DOM23h-271-123 (VHH, expressed from pC10) VHH: EVQLLESGGGLVQPGGSLRLSCAASGSTFTEYRMWWVRQAPGKGLEWVSAIEPIGHRTYYADSVKGRFTISRDNSKNTLYLQMNSLRAEDTAVYYCAKQAPGEKWARRWDLDYWGQGTLVTVSS	18.3
DOM23h-271-130 (DOM23h-271-123 + C-terminal Alanine) (VHH, human VH dAb) VHH: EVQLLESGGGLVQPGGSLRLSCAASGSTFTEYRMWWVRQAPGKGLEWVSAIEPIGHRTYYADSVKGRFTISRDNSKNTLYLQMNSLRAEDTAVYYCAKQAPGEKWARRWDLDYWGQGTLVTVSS	37
DOM23h-439-41 (DOM23h-439-25 + C-terminal Alanine + 48I) (VHH, human VH dAb) VHH: EVQLLESGGGLVQPGGSLRLSCAASGFTFGTEQMWWVRQAPGKGLEFISRIDSPGGRTYYADSVKGRFTISRDNSKNTLYLQMNSLRAEDTAVYYCAKRRPTGVSGTFYDYWGQGTLVTVSS	1.7
